target desc: T1, MUC1 on HCT116/MUC1 cells (UniProt P15941 24-1255, limits assumed)
T1 construct: whole, on cells; also called MUC1 overexpressed cell line
T1 sequence (P15941 24-1255 limits assumed): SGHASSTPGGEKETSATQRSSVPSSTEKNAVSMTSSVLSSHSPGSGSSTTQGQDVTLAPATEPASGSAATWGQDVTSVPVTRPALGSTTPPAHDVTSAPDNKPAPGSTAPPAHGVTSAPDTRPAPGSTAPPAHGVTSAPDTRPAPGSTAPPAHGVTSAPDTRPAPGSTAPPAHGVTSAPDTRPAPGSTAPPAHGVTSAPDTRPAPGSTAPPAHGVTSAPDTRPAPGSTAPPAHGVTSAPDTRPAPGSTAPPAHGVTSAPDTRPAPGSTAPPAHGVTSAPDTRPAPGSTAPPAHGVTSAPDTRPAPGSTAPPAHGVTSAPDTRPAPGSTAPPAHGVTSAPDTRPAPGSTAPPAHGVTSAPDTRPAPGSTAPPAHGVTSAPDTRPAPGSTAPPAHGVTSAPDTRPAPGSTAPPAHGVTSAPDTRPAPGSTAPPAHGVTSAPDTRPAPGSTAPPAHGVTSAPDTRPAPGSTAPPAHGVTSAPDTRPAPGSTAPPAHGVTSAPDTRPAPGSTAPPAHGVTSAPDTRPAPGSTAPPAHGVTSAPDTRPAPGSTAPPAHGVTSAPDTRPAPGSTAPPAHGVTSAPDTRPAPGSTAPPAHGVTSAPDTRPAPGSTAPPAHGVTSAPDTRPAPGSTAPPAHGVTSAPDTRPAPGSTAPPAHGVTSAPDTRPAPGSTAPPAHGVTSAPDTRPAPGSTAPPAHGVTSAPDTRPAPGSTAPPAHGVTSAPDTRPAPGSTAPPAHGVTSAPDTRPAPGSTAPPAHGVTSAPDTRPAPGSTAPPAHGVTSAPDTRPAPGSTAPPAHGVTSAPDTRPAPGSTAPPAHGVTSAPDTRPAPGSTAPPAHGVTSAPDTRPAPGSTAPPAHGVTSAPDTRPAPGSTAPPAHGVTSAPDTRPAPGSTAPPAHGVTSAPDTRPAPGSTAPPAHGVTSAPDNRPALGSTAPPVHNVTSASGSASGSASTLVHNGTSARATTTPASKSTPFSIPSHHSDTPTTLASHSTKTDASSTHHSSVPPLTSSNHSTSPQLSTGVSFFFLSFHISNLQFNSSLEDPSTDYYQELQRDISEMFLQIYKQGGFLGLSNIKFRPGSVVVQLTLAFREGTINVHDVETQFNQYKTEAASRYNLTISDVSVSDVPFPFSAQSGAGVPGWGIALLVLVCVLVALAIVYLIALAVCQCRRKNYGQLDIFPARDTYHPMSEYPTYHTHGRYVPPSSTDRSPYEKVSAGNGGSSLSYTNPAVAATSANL
test method notes: FACS titration on HCT116/MUC1 cells
measure name: pEC50
Give bare numbers, as −log10 of the molar value.

VH2 + VL3 (antibody, V domains shown, Humanized IgG expressed in HEK293; also called humanized antibody VH2+VL3) VH: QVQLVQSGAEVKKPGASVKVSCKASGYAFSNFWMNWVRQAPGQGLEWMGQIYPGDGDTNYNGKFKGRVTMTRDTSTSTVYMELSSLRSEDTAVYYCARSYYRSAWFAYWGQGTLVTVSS VL: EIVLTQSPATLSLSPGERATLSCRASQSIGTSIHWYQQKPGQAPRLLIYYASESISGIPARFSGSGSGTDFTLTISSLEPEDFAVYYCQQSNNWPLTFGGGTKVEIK : 7.34
VH5 + VL4 (antibody, V domains shown, Humanized IgG expressed in HEK293; also called humanized antibody VH5+VL4) VH: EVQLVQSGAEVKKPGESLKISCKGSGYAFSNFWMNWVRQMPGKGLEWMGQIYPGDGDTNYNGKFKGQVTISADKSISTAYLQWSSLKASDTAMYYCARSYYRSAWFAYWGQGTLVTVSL VL: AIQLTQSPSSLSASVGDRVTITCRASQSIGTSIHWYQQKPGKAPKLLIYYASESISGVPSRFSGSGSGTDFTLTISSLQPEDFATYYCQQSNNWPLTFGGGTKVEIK : 7.69
VH1 + VL4 (antibody, V domains shown, Humanized IgG expressed in HEK293; also called humanized antibody VH1+VL4) VH: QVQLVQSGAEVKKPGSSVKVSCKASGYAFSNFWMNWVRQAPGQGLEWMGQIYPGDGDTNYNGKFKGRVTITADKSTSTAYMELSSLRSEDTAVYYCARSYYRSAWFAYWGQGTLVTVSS VL: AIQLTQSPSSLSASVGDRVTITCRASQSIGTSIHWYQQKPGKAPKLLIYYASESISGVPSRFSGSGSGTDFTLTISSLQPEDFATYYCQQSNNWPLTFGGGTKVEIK : 7.50
VH3 + VL1 (antibody, V domains shown, Humanized IgG expressed in HEK293; also called humanized antibody VH3+VL1) VH: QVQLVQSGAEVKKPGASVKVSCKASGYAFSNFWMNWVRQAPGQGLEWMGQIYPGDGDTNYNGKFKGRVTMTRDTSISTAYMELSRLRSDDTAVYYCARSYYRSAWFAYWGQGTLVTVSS VL: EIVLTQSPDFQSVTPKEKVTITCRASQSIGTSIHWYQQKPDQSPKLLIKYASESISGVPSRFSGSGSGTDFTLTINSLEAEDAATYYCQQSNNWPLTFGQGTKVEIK : 7.54
VH2 + VL1 (antibody, V domains shown, Humanized IgG expressed in HEK293; also called humanized antibody VH2+VL1) VH: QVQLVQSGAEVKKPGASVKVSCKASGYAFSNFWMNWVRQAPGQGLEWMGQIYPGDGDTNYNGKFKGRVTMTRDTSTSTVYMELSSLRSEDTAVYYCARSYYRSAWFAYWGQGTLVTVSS VL: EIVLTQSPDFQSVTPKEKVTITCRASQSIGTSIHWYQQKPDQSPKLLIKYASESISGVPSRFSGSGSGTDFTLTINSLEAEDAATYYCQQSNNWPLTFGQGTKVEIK : 7.23
VH3 + VL4 (antibody, V domains shown, Humanized IgG expressed in HEK293; also called humanized antibody VH3+VL4) VH: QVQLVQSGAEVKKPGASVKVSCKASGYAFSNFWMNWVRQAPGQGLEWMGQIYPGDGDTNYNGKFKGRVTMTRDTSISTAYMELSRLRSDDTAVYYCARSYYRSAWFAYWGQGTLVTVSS VL: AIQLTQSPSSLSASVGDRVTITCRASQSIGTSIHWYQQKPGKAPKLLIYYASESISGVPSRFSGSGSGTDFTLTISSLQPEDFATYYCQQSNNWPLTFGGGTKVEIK : 7.48
VH3 + VL3 (antibody, V domains shown, Humanized IgG expressed in HEK293; also called humanized antibody VH3+VL3) VH: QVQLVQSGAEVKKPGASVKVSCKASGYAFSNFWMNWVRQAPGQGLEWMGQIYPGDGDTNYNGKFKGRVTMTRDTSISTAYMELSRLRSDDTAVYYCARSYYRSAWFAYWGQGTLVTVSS VL: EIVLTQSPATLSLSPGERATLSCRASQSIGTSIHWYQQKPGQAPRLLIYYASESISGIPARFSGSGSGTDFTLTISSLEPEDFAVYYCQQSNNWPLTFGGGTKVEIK : 7.51
VH5 + VL1 (antibody, V domains shown, Humanized IgG expressed in HEK293; also called humanized antibody VH5+VL1) VH: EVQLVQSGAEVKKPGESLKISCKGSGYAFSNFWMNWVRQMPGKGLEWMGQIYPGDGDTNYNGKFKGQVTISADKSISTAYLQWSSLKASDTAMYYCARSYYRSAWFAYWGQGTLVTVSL VL: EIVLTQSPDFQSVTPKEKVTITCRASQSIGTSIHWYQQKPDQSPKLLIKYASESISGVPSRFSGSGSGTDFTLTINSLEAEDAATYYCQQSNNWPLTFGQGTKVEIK : 7.63

Attention now shifts to the item below.
# pEC50 (binder: VH5 + VL3 (antibody, V domains shown, Humanized IgG expressed in HEK293; also called humanized antibody VH5+VL3) VH: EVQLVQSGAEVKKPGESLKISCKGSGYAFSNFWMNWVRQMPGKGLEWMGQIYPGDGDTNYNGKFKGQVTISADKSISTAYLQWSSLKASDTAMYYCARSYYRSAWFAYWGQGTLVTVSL VL: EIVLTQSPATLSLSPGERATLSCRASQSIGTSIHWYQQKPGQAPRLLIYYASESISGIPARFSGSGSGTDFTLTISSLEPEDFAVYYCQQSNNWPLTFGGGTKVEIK ) is 7.66
